Quick reference: pKa of the listed items.
test: physchem
Description: Ionization constant (pKa)
Enter a number only.

CS(=O)(=O)Nc1ccc(Nc2c3ccccc3nc3cccc(Cl)c23)cc1
5.86
COc1cc(Nc2c3ccccc3nc3ccccc23)ccc1NS(C)(=O)=O [o-Amsacrine]
7.03
CS(=O)(=O)Nc1ccc(Nc2c3ccccc3nc3cc(Br)ccc23)cc1
6.56
C[N+](C)=[N+]=Nc1ccc2c(Nc3ccc(NS(C)(=O)=O)cc3)c3ccccc3nc2c1
7.13
CS(=O)(=O)Nc1ccc(Nc2c3ccccc3nc3c(Cl)cccc23)cc1
5.92

# lookup: pKa of Cc1cc(NS(C)(=O)=O)ccc1Nc1c2ccccc2nc2ccccc12
7.38

# lookup: pKa of CS(=O)(=O)Nc1ccc(Nc2c3ccccc3nc3ccccc23)cc1Cl
6.44

Where do these numbers come from? They come from ChEMBL document CHEMBL1121401.
